The entries below are paired with their reported IC50.
Biological target: protein kinases (panel of Table 4) (Homo sapiens, UniProt P00519)
Sequence (P00519 whole entry): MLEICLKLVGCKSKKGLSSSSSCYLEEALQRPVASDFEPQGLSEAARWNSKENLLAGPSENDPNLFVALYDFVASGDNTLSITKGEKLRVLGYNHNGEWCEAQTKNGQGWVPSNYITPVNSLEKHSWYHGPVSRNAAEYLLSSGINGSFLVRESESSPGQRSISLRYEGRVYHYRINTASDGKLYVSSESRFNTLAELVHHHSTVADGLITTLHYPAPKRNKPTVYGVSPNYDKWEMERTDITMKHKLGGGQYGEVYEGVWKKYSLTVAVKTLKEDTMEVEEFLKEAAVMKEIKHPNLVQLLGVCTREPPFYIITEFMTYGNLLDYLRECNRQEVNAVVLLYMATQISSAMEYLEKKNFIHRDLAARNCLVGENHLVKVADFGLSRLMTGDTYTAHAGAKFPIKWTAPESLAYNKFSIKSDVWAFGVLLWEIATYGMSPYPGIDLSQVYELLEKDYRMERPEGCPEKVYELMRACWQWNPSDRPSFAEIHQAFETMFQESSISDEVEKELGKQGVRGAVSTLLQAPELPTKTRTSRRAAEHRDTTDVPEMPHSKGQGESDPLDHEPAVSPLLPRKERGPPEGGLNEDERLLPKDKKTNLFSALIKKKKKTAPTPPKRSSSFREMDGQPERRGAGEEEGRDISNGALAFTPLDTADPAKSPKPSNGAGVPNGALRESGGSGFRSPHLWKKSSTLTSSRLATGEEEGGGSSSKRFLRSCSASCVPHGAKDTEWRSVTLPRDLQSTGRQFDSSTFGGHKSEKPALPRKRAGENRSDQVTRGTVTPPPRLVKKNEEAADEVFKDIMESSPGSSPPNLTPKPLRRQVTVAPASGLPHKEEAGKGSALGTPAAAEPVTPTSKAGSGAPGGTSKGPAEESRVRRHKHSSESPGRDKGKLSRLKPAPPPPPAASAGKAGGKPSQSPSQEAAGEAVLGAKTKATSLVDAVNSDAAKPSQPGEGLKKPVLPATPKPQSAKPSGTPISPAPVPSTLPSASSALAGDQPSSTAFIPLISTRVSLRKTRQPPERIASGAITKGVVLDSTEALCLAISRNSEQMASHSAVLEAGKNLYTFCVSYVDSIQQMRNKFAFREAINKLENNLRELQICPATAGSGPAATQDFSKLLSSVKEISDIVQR
// note: answer is a bare numeric in nM

Some compounds with recorded IC50:
Cpd smiles	Value unit	IC50
CNc1nc(C)c(-c2ccnc(Nc3ccc(C)c(S(=O)(=O)N4CCOCC4)c3)n2)s1	nM	3800
CNc1nc(C)c(-c2ccnc(Nc3cccc(S(N)(=O)=O)c3)n2)s1	nM	370
CCNc1nc(C)c(-c2ccnc(Nc3ccc(N4CCNCC4)cc3)n2)s1	nM	470

Could you now consider this next compound?
Per the records, this compound ( Cc1ccc(Nc2nccc(-c3sc(N)nc3C)n2)cc1S(=O)(=O)N1CCOCC1 ) has IC50 equal to 2300

These measurements were taken from patent US20090137572A1.
